Test system: CAKI-1 renal
Assay: NCI-60 one-dose screen, 48 h (100 = growth as untreated, 0 = no growth, -100 = all killed)
Details: 10 µM unless noted
About 83,000 compounds went through this panel and 20% of them were active in at least one assay; those are over-represented in the sample as a whole.
Please respond with reported growth for every item in the list.
Response body: numeric value in %, unit text excluded.

# input compound: COc1cc2oc(-c3cccc(NC(=O)Nc4ccc5c(c4)OCO5)c3)cc(=O)c2c(OC)c1OC ; wanted: its growth
48.6

# input compound: CN(C)c1ncc(-c2ccc(C(F)(F)F)cc2)c(NC2CCCCCC2)n1 ; wanted: its growth
85.5

# input compound: C=C1C(=O)O[C@H]2[C@H]1CC/C(COC(=O)NCCc1ccc(OC)cc1)=C\CC[C@@]1(C)O[C@@H]21 ; wanted: its growth
-2.71

# input compound: C=C1C(=O)O[C@H]2[C@H]1CC/C(COC(=O)NCCc1cccc(OC)c1)=C\CC[C@@]1(C)O[C@@H]21 ; wanted: its growth
8.84

# input compound: C#CCN1C(=O)/C(=c2\sc3n(c2=O)C2C(NN=3)N(CC)C(=O)N2CC)c2ccccc21 (configuration not stated) ; wanted: its growth
23.5

# input compound: COc1cccc(/C=C2\SC(N3CCN(c4ccccn4)CC3)=NC2=O)c1 ; wanted: its growth
104

# input compound: ClC1=C(Cl)C(Cl)=C(Cl)C1=Cc1ccc(Cl)cc1Cl ; wanted: its growth
-41.2

# input compound: CC(=O)Nc1ccc(S(=O)(=O)NC(CCC(=O)Nc2ccc(Cl)cc2)C(=O)O)cc1 (configuration not stated) ; wanted: its growth
83

# input compound: O=[N+]([O-])c1cccc(-c2cc(-c3cc(Br)ccc3O)[nH]n2)c1 ; wanted: its growth
40.5

# input compound: Cc1nc2sccn2c1-c1csc(Nc2ccccc2Cl)n1 ; wanted: its growth
34.6

# input compound: CCN1C(=O)N(CC)C2C1NN=c1s/c(=C\c3cccc(F)c3)c(=O)n12 (configuration not stated) ; wanted: its growth
40.8

# input compound: COc1ccc(C2=NN(c3ccc(S(N)(=O)=O)cc3)C(c3cn(-c4ccccc4)nc3-c3ccc(Cl)cc3)C2)cc1 (configuration not stated) ; wanted: its growth
90.9

# input compound: C=C1C(=O)O[C@H]2[C@H]1CC/C(COC(=O)NCc1ccc(OC)cc1)=C\CC[C@@]1(C)O[C@@H]21 ; wanted: its growth
15

# input compound: CCCCCCCCCCCCCCCCCCOc1cccc(CCOP(=O)(O)OCC[N+](C)(C)C)c1 ; wanted: its growth
55.3

# input compound: COc1cc(OC)c(C(=O)/C=C/c2ccc(C#N)cc2)c(OC)c1 ; wanted: its growth
18.5

# input compound: CN(C)C1CCC(NC2=CC(=O)C=CC2=O)CC1 (configuration not stated) ; wanted: its growth
100

# input compound: CCC#CC[C@H]1C/C=C2/C(=O)C=C[C@@H]2C/C=C\CCCC(=O)O1 ; wanted: its growth
18.2

# input compound: COc1cc(-c2csc(NC(=O)c3cc(C(F)(F)F)cc(C(F)(F)F)c3)n2)cc(OC)c1OC ; wanted: its growth
43.2

# input compound: COc1cc(CNC(=O)CSc2nc3ccccc3c(=O)n2Cc2cc(OC)c(OC)c(OC)c2)cc(OC)c1OC ; wanted: its growth
98.5

# input compound: CCOP(=O)(CCN1CCN(CCCCCOc2cc3c(cc2OC)C(=O)N2CCC[C@H]2C=N3)CC1)OCC ; wanted: its growth
57.3

# input compound: O=C1NCC(c2cc3ccccc3[nH]c2=O)Nc2ccccc21 (configuration not stated) ; wanted: its growth
88.1

# input compound: COc1ccc([N+](=O)[O-])c(/C=C/C(=O)c2ccccn2)c1 ; wanted: its growth
71.7

# input compound: C=C1C(=O)O[C@H]2[C@H]1CC/C(Cn1cc(-c3ccc(N)cc3)nn1)=C\CC[C@@]1(C)O[C@@H]21 ; wanted: its growth
16.7

# input compound: CCCCCCCCCCCCOB(OCCCCCCCCCCCC)OCCCCCCCCCCCC ; wanted: its growth
104

# input compound: N#CC1=C(N)n2nc(-c3ccncc3)nc2NC1c1cccc2ccccc12 (configuration not stated) ; wanted: its growth
69

# input compound: COc1cc(/C=C2\CCCC3=C2NC(C)=NC3c2cc(OC)c(OC)c(OC)c2)cc(OC)c1OC (configuration not stated) ; wanted: its growth
11.4

# input compound: COc1cc(C2CC(c3c(C)[n+]([O-])c4ccccc4[n+]3[O-])=NN2)cc(OC)c1OC (configuration not stated) ; wanted: its growth
106

---

Test system: SK-MEL-5 melanoma
Experiment: NCI-60 one-dose screen, 48 h (100 = growth as untreated, 0 = no growth, -100 = all killed)
Conditions: 10 µM unless noted
The panel holds about 83,000 compounds, 20% with a hit somewhere; the sample as a whole holds those more often.
Classify: T when growth is strictly less than 80%; F when growth is not.

In the record for CCn1cc(C(=O)O)c(=O)c2cc(F)c(N3CCN(S(=O)(=O)c4ccc(Cl)cc4Cl)CC3)cc21 , is growth less than 80%?
T

In the record for O=c1cc(C2NCCc3c2[nH]c2ccccc32)c2c(ccc3ccccc32)o1 (centres undefined) , is growth less than 80%?
T

In the record for Cc1oc2ncnc(Nc3ccccc3)c2c1C(=O)NCCO , is growth less than 80%?
F

In the record for Nc1c(C(=O)c2ccc(F)cc2)sc2nc3c(cc12)CCCC3 , is growth less than 80%?
F

In the record for COc1ccc(C(=O)N2CCN(C(=O)c3cc(OC)c(OC)c(OC)c3)CC2)cc1OCCCCOc1cc2c(cc1OC)C(=O)N1CCC[C@H]1C=N2 , is growth less than 80%?
T

In the record for CC(=O)Nc1nc(C(=O)N2N=C(C)/C(=C/c3ccccc3)C2=O)cs1 , is growth less than 80%?
F

In the record for CC[C@H](C)[C@H]1NC(=O)[C@@H](N[C@](C)(O)[C@@H](N)CC(C)C)[C@@H](C)OC(=O)[C@H](Cc2ccc(OC)cc2)N(C)C(=O)[C@@H]2CCCN2C(=O)[C@H](CC(C)C)NC(=O)[C@@H](C)C(=O)[C@H](C(C)C)OC(=O)C[C@@H]1O , is growth less than 80%?
T

In the record for Cc1cc(C(=O)O)c(N)c(C)n1 , is growth less than 80%?
F

---

Tested on: OVCAR-5 ovarian
Assay: NCI-60 one-dose screen, 48 h (100 = growth as untreated, 0 = no growth, -100 = all killed)
Details: 10 µM unless noted
Compounds without any hit were thinned out: in the full panel of roughly 83,000, 20% have a hit.
measured.metric: growth (%)
Response body: numeric value in %, unit text excluded.

# input compound: CC(Br)C(OC(=O)c1ccccc1Cl)c1cc2c(cc1Br)OCO2 (stereo not drawn) ; wanted: its growth
89.6

# input compound: COc1cc(-c2nc(-c3nc4ccccc4[nH]3)cc3c2[nH]c2ccccc23)cc(OC)c1OC ; wanted: its growth
88.8

# input compound: COc1ccc([N+](=O)[O-])c(/C=C/C(=O)c2ccccn2)c1 ; wanted: its growth
90.5

---

Tested on: BT-549 breast
Experiment: NCI-60 one-dose screen, 48 h (100 = growth as untreated, 0 = no growth, -100 = all killed)
Settings: 10 µM unless noted
Description: Growth inhibition of the BT-549 human tumor cell line is measured as a screen for anti-cancer activity. Cells are grown in 96 well plates and exposed to the test compound for 48 hours. Compounds are tested at a single concentration, which is 10^-5 M for most compounds. The reported endpoint is percent growth (GI% or GIPRCNT), where numbers from 0 - 100% represent growth inhibition, and numbers from -100% - 0 represent cell death. For example, a value of 40 represents 60% growth inhibition. […]
This is part of a sample that, as a whole, favours compounds with a hit. Of some 83,000 tested, about 20% had one in any assay.
measured.metric: growth (%)
Response body: numeric value in %, unit text excluded.

Query the reported growth for BT-549 breast; item: CCC1CCc2nc3sc(C(=O)Nc4cccc(C)c4)c(N)c3cc2C1 (stereo not given)
86.1

Query the reported growth for BT-549 breast; item: CSc1ccccc1C#C/C=C\C#Cc1ccccc1N1CCCCC1=O
92.1

Query the reported growth for BT-549 breast; item: Cc1ccc(S(=O)(=O)N2CCC(C(=O)Nc3ccc(F)cc3F)CC2)cc1
96.9

Query the reported growth for BT-549 breast; item: COc1cc(OC)cc(-c2n[nH]nc2-c2ccc3c(c2)OCO3)c1
51.2

Query the reported growth for BT-549 breast; item: O=[N+]([O-])c1cccc(-c2cc(-c3cc(Br)ccc3O)[nH]n2)c1
24.1

Query the reported growth for BT-549 breast; item: COc1cc2nc(SCc3cc(OC)c(OC)c(OC)c3)n(Cc3ccccc3)c(=O)c2cc1OC
16.8

Query the reported growth for BT-549 breast; item: COc1ccc(C2NC3=C(CCCC3)C(C#N)(C#N)C2(C#N)C#N)cc1 (stereo not given)
92.9

Query the reported growth for BT-549 breast; item: COc1ccc(OC)c(NC(=O)c2cc(S(=O)(=O)N3CCc4ccccc43)ccc2OC)c1
104

Query the reported growth for BT-549 breast; item: Nc1c(C(=O)Nc2cccc(C(F)(F)F)c2)sc2nc3c(cc12)CCCCCC3
59.6

Query the reported growth for BT-549 breast; item: CCN(CC)CCCNc1nc(C)cc(Nc2ccc3nc(C)cc(N)c3c2)n1
84.9
